Target: MRP2 (Rattus norvegicus, UniProt Q63120)
Sequence (Q63120 whole entry): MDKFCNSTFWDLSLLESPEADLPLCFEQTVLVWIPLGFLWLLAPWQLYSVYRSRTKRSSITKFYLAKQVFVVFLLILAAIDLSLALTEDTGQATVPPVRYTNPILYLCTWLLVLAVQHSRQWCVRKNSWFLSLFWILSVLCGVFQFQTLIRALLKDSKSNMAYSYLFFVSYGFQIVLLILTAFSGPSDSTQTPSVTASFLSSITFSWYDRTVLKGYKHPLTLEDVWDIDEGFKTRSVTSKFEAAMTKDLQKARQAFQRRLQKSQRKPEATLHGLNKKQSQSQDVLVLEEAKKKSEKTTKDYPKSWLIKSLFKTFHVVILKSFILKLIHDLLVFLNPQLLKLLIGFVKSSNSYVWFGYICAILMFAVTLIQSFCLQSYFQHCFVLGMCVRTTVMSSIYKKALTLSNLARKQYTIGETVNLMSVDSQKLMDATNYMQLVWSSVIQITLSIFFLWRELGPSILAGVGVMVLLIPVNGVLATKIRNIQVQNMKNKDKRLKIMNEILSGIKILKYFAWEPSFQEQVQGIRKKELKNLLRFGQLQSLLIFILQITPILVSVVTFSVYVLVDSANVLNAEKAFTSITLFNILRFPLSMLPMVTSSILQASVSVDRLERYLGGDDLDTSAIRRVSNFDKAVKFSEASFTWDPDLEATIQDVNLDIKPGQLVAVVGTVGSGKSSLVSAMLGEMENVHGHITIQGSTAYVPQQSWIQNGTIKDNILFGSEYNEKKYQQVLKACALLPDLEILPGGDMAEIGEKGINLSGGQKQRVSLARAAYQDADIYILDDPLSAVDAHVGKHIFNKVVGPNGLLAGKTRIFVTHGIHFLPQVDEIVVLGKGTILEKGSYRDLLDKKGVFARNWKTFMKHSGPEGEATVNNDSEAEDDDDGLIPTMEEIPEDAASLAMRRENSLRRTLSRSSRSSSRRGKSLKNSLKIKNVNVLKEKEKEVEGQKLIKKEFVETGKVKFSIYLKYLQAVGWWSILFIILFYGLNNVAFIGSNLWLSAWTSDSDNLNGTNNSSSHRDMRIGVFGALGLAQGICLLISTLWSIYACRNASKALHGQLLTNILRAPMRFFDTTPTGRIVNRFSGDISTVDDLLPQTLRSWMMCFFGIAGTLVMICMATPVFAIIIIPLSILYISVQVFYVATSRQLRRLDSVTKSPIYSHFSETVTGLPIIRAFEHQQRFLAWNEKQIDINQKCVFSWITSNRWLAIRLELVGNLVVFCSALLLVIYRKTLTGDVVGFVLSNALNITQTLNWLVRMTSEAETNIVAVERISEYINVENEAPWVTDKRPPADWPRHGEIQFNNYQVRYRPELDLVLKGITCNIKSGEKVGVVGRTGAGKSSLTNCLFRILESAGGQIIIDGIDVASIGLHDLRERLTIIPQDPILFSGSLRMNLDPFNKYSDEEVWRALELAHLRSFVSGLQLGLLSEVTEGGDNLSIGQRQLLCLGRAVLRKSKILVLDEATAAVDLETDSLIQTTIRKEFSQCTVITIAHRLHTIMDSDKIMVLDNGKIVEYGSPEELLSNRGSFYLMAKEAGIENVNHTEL
Assay: Influence of emodin on MRP2 function: pravastatin bidirectional transport in the presence of emodin (Ussing chamber)
Assay type: in vitro ADME
Parameters: intestinal segments including duodenum, jejunum, ileum, and colon from anesthetized rats were immediately removed by surgery; from tissue; host or cells: stripped rat intestine (jejunum and ileum in validation; jejunum for the emodin studies)
Details: rat, pH 6.5, pravastatin 47 μM, rat jejunum, without emodin; read-out: Papp S-M, control
measuredParameter: Papp at 47 μM (×10⁻⁶ cm/s)

molecule	measureUnit	numericValue
CC[C@H](C)C(=O)O[C@H]1C[C@H](O)C=C2C=C[C@H](C)[C@H](CC[C@@H](O)C[C@@H](O)CC(=O)O)[C@H]21	×10⁻⁶ cm/s	82.2

---

System: P-gp
Test: Influence of emodin on P-gp function: digoxin bidirectional transport in the presence of emodin (Ussing chamber)
Type: in vitro ADME
Conditions: rat, pH 6.5, with emodin 370 μM on mucosal side, digoxin 25 μM, rat jejunum, emodin 370 μM on mucosal side; read-out: Papp M-S in the presence of emodin
measuredParameter: Papp at 25 μM (×10⁻⁶ cm/s)

molecule	systemName	measuredParameter	numericValue
C[C@H]1O[C@@H](O[C@H]2[C@@H](O)C[C@H](O[C@H]3[C@@H](O)C[C@H](O[C@H]4CC[C@@]5(C)[C@H](CC[C@@H]6[C@@H]5C[C@@H](O)[C@]5(C)[C@@H](C7=CC(=O)OC7)CC[C@]65O)C4)O[C@@H]3C)O[C@@H]2C)C[C@H](O)[C@@H]1O	P-gp	Papp at 25 μM	49

From: paper PMC6023986
